Test system: KALS1
Test: Colony formation (CFU) assay, KALS1
Format: cell-based
Settings: Homo sapiens, KALS-1, 336 h; KALS1, nervous system; CFU ~14 days; wells with DMSO or 300 nM Compound 1; read-out: Chemotherapy nM IC50s
REPORTED_METRIC: IC50 (nM)
Quick reminder: number only, in nM, skip the unit.

# input Item COc1cccc2c1C(=O)c1c(O)c3c(c(O)c1C2=O)C[C@@](O)(C(=O)CO)C[C@@H]3O[C@H]1C[C@H](N)[C@H](O)[C@H](C)O1 [Dox., doxorubicin] has what recorded IC50?
# output 52

* * *

Tested on: A549
Experiment: Colony formation (CFU) assay, A549
Type: cell-based
Details: A549, lung; CFU ~14 days; wells with DMSO or 300 nM Compound 1; read-out: Chemotherapy nM IC50s
REPORTED_METRIC: IC50

# input Item N.N.[Cl][Pt][Cl] [Cis., cisplatin] has what recorded IC50?
# output > 316 nM

* * *

Tested on: SUM149PT
Assay: Colony formation (CFU) assay, SUM149PT
Type: cell-based
Settings: breast, CFU ~14 days, wells with DMSO or 300 nM Compound 1, read-out: Chemotherapy nM IC50s
REPORTED_METRIC: IC50 (nM)
Quick reminder: number only, in nM, skip the unit.

# input Item `CO[C@@]12[C@H](COC(N)=O)C3=C(C(=O)C(C)=C(N)C3=O)N1C[C@@H]1N[C@@H]12` has what recorded IC50?
# output 5

* * *

System: MERO14
Test: Colony formation (CFU) assay, MERO14
Assay type: cell-based
Conditions: CFU ~14 days, wells with DMSO or 300 nM Compound 1, read-out: Chemotherapy nM IC50s
REPORTED_METRIC: IC50 (nM)
Quick reminder: number only, in nM, skip the unit.

# input Item COc1cccc2c1C(=O)c1c(O)c3c(c(O)c1C2=O)C[C@@](O)(C(=O)CO)C[C@@H]3O[C@H]1C[C@H](N)[C@H](O)[C@H](C)O1 [Dox., doxorubicin] has what recorded IC50?
# output 14

* * *

Tested on: U251MG
Assay: Colony formation (CFU) assay, U251MG
Type: cell-based
Settings: Homo sapiens, U-251, 336 h, nervous system, CFU ~14 days, wells with DMSO or 300 nM Compound 1, read-out: Chemotherapy nM IC50s
REPORTED_METRIC: IC50

# input Item Cn1nnc2c(C(N)=O)ncn2c1=O [Temozol., Temozolomide] has what recorded IC50?
# output < 1 nM
